Provenance of the data: BindingDB's records for doi:10.1021/jm0702579

Protocol Notes: Ratio of Ki for mouse wild type C1b domain of PKCdelta to Ki for mouse PKCdelta C1b Q27E mutant
Property Name: pKi
Value format note: pKi is -log10 of concentration (mol/L); just state the number.

Problem: # pKi lookup, item CCCC(=O)O[C@@H]1[C@@H](C)[C@@]2(O)[C@@H](C=C(CO)C[C@]3(O)C(=O)C(C)=C[C@@H]23)[C@@H]2C(C)(C)[C@]12OC(=O)CCC
Result: 7.72
